pKi: −log10 of the molar value.
A short record of pKi observed with UniProtKB P41144 follows.
Sequence (P41144 whole entry): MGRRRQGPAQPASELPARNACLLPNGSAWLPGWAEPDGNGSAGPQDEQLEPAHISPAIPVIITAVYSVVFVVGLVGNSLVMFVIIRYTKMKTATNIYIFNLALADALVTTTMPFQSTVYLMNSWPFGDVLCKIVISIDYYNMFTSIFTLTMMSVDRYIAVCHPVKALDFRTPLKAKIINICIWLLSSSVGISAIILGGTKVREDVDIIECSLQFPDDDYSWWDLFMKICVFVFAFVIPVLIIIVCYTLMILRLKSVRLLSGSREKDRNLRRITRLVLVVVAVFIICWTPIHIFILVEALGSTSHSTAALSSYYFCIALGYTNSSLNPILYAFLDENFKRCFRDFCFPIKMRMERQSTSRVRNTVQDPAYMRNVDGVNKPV

>  <Smiles record>
Oc1cccc(CCN(CCc2ccccc2)CC2CCC2)c1

>  <pKi>
8.72

$$$$
>  <Smiles record>
CCCC[C@@H](NC(=O)[C@@H](Cc1ccccc1)NC(=O)[C@H](N)Cc1cccc(F)c1)C(=O)N[C@H](CCCNC(=N)N)C(N)=O

>  <pKi>
8.89

$$$$
>  <Smiles record>
CCCC[C@@H](NC(=O)[C@@H](Cc1ccccc1)NC(=O)[C@H](N)Cc1ccccc1F)C(=O)N[C@H](CCCNC(=N)N)C(N)=O

>  <pKi>
8.36

$$$$
>  <Smiles record>
CCCC[C@@H](NC(=O)[C@@H](Cc1ccccc1)NC(=O)[C@H](N)Cc1c[nH]c2ccccc12)C(=O)N[C@H](CCCNC(=N)N)C(N)=O

>  <pKi>
8.51

$$$$
>  <Smiles record>
CCCC[C@@H](NC(=O)[C@@H](Cc1ccc(F)cc1)NC(=O)[C@H](N)Cc1ccccc1)C(=O)N[C@H](CCCNC(=N)N)C(N)=O

>  <pKi>
9.04

$$$$
>  <Smiles record>
CCCC[C@@H](NC(=O)[C@H]1Cc2ccccc2CN1C(=O)[C@H](N)Cc1ccccc1)C(=O)N[C@H](CCCNC(=N)N)C(N)=O

>  <pKi>
8.44

$$$$

* * *

- Protocol notes: Half life in C57/BL6 mouse plasma at 13.9 mg/kg, iv administered via bolus by LC-MS/MS analysis
- Format: ADME, organism-based
Square brackets hold non-standard residues; d marks the D form. Peptide text beside a SMILES is read from it. dNle = CCCC[C@@H](N)C(=O)O

>  <Compound>
CCCC[C@@H](NC(=O)[C@@H](Cc1ccccc1)NC(=O)[C@H](N)Cc1ccccc1)C(=O)N[C@H](CCCNC(=N)N)C(N)=O (H-[dF][dF][dNle][dR]-NH2)

>  <half-life / min>
12.7

$$$$
>  <Compound>
CCCC[C@@H](NC(=O)[C@@H](Cc1ccc(F)cc1)NC(=O)[C@H](N)Cc1ccccc1)C(=O)N[C@H](CCCNC(=N)N)C(N)=O

>  <half-life / min>
20.6

$$$$
